Test system: SNB-75 CNS
test_protocol: NCI-60 one-dose screen, 48 h
settings: 10 µM
Protocol: Growth inhibition of the SNB-75 human tumor cell line is measured as a screen for anti-cancer activity. Cells are grown in 96 well plates and exposed to the test compound for 48 hours. Compounds are tested at a single concentration, which is 10^-5 M for most compounds. The reported endpoint is percent growth (GI% or GIPRCNT), where numbers from 0 - 100% represent growth inhibition, and numbers from -100% - 0 represent cell death. For example, a value of 40 represents 60% growth inhibition. […]
About 83,000 compounds went through this panel and 20% of them were active in at least one assay; those are over-represented in the sample as a whole. The source made the active and inactive calls. Rule for the calls: active = growth percent below 10; inactive = the rest.
Respond only with the outcome that fits, drawn from true for active, false for inactive

Record request — test call for C=CCNc1nnc(C)s1
false

Record request — test call for CC(=O)OC(C(=O)O)c1ccccc1 (stereo not drawn)
false

Record request — test call for NC(=S)NN=C1CCCC1
false

Record request — test call for CC1CC(O)CC(C)(C)C1 (stereo not drawn)
false

Record request — test call for CCN=c1cc2sc3cc(NCC)c(C)cc3nc-2cc1C
false

Record request — test call for O=C(O)CCCC(=O)O
false

Record request — test call for C=CC[N+](C)(C)C
false

Record request — test call for Cc1nc2ccccc2c(C(=O)O)c1O
false

Record request — test call for c1cc2cccc3c4cccc5cccc(c(c1)c23)c54
false

Record request — test call for CC(=O)/C(Cc1ccccc1)=N/O
false

Record request — test call for COc1cc(C2c3cc4c(cc3C3OC(=O)C2C3CO)OCO4)cc(OC)c1OC (stereo not drawn)
false

Record request — test call for CC(C)=C(NC(=O)c1ccccc1)C(=O)O
false

Record request — test call for COc1ccc(C2OC(N)=C(O)C2=O)cc1OC (stereo not drawn)
false

Record request — test call for CCOC(=O)Nc1cc2c(c(N)n1)N=C(c1ccccc1)CO2
false

Record request — test call for CCC(C#N)(CC)c1ccccc1
false

Record request — test call for C[N+](C)(C)C(=O)c1ccccc1
false

Record request — test call for Cc1ccc(Cl)cc1NC(=O)N(C)CCO
false

Record request — test call for CC1(C)Nc2cccc3c(N=Nc4ccc(N=Nc5ccccc5)c5ccccc45)ccc(c23)N1
false

Record request — test call for O=[N+]([O-])c1cccc2nsnc12
false

Record request — test call for O=C(O)[C@@H]1[C@H]2C[C@H]3c4[nH]c5ccccc5c4CCN3C[C@@H]2CC[C@@H]1O
false

Record request — test call for Nc1ccccc1C(=O)Nc1ccc(Cl)cc1Cl
false

Record request — test call for CC1=CC(C)(C)NC(=S)N1c1ccc(S(=O)(=O)O)c2cccc(S(=O)(=O)O)c12
false

Record request — test call for COCCCC/C(=N\OCCN)c1ccc(C(F)(F)F)cc1
false

Record request — test call for Sc1ccc(Nc2c3ccccc3nc3ccccc23)cc1
false

Record request — test call for CC1(O)OC(COc2ccc(Cl)cc2)COC1O (stereo not drawn)
false

Record request — test call for COC(=O)c1[nH]c(=O)c(C#N)c(C(=O)OC)c1C(=O)c1ccccc1
false

Record request — test call for CSC(=N\N=C\c1ccc(N(C)C)cc1)/N=C/N(C)C
false

Record request — test call for NC(=O)c1ccc(N=C(N)N=C(N)N)cc1
false

Record request — test call for c1ccc(Cc2ccccc2)cc1
false

Record request — test call for Nc1nc(OCc2ccccc2)c2[nH]cnc2n1
true

Record request — test call for O=C(Nc1ccccc1C(=O)NCC1CC1)c1cccs1
false

Record request — test call for CCCCNC1(C#N)CCN(Cc2ccccc2)CC1
false

Record request — test call for CCCCC(CC)COC(C)=O (stereo not drawn)
false

Record request — test call for COc1cc2nc3cc([N+](=O)[O-])ccc3c(Cl)c2cc1OC
false

Record request — test call for C/C(=N/NC(N)=O)c1ccco1
false

Record request — test call for CC12CC3CC1C(C(=O)O2)C3C(=O)O (stereo not drawn)
false

Record request — test call for O=c1cc(-c2ccccc2)[nH]c2c1CCCC2
true

Record request — test call for COC(=O)Nc1nc2ccc(C(=O)c3cccs3)cc2[nH]1
false

Record request — test call for Cc1cccc(C(=O)N(C(C)C)C(C)C)c1
false

Record request — test call for CCOC(=O)c1cc(/C=C/c2ccc(Cl)cc2Cl)on1
false

Record request — test call for Cc1ccc(C)n1-c1ccsc1C(=O)NNC(=O)C(Cl)Cl
false

Record request — test call for O=C(Cc1ccc(OCc2ccccc2)cc1)NCc1ccc2c(c1)OCO2
false

Record request — test call for CC(C)NC(=O)OCc1c(COC(=O)NC(C)C)c(-c2ccc(Cl)c(Cl)c2)n2c1SCC2
false

Record request — test call for Cc1cc(/C=C/c2ccc3cc(N(C)C)ccc3[n+]2C)c(C)n1-c1ccccc1
true

Record request — test call for O=[N+]([O-])c1ccc(-c2noc(-c3cccs3)n2)cc1
false

Record request — test call for CC(=O)OC1CC2C(C)(C)OC3CC(=O)OCC32C2CCC3(C)C(=CCC3c3ccoc3)C12C (stereo not drawn)
false

Record request — test call for CC1CCC(C(=O)O)N1 (stereo not drawn)
false

Record request — test call for O=c1[nH]n(-c2ccccc2)c(=O)cc1Cl
false

Record request — test call for Oc1ccc2c(c1)OCC1(O)Cc3cc(O)c(O)cc3C21 (stereo not drawn)
false

Record request — test call for COC(=O)c1cccnc1
false

Record request — test call for Nc1ncnc2c1nc(N)n2C1OC(CO)C(O)C1O (stereo not drawn)
true

Record request — test call for CC1(C)S(=O)(=O)OCCOS1(=O)=O
false

Record request — test call for CC1Cc2ccccc2O1 (stereo not drawn)
false

---

Answer each item with its documented growth.
Test system: SK-OV-3 ovarian
test_protocol: NCI-60 one-dose screen, 48 h (100 = growth as untreated, 0 = no growth, -100 = all killed)
settings: 10 µM
This is part of a sample that, as a whole, favours compounds with a hit. Of some 83,000 tested, about 20% had one in any assay.
Numbers only; they are read as %.

Lab note: need growth for O=C(CCNNC(=O)c1ccncc1)NCc1ccccc1 on SK-OV-3 ovarian, anyone have it?
104

Lab note: need growth for COc1ccc(C(O)c2ccccc2)cc1 (stereo unspecified) on SK-OV-3 ovarian, anyone have it?
99.2

Lab note: need growth for COC(=O)c1cc(-c2ccc(Cl)c(Cl)c2)[nH]c(=O)c1C#N on SK-OV-3 ovarian, anyone have it?
103

Lab note: need growth for OCc1cccc2ccccc12 on SK-OV-3 ovarian, anyone have it?
110

Lab note: need growth for Nc1nc2c(c(-c3nc(N)nc4c3CCc3ccccc3-4)n1)CCc1ccccc1-2 on SK-OV-3 ovarian, anyone have it?
87.2

Lab note: need growth for NC(C(=O)O)C(O)c1ccco1 (stereo unspecified) on SK-OV-3 ovarian, anyone have it?
107

Lab note: need growth for CC12CC3CC1C(C(=O)O2)C3C(=O)O (stereo unspecified) on SK-OV-3 ovarian, anyone have it?
95.6

Lab note: need growth for c1csc(-c2cc(-c3cc(-c4cccs4)[nH]n3)n[nH]2)c1 on SK-OV-3 ovarian, anyone have it?
97

Lab note: need growth for CC1CCCC(CC(N)=O)CC1 (stereo unspecified) on SK-OV-3 ovarian, anyone have it?
107

Lab note: need growth for CCCCCC(C)(CC(=O)O)CC(=O)O on SK-OV-3 ovarian, anyone have it?
114

Lab note: need growth for C#CC(C)(O)c1ccc(Cl)cc1 (stereo unspecified) on SK-OV-3 ovarian, anyone have it?
90.3

Lab note: need growth for O=C(NC1CCCCC1)OCc1c(COC(=O)NC2CCCCC2)c(-c2ccc(Cl)c(Cl)c2)n2c1CCC2 on SK-OV-3 ovarian, anyone have it?
12.4

Lab note: need growth for COc1cc2nc3cc([N+](=O)[O-])ccc3c(Cl)c2cc1OC on SK-OV-3 ovarian, anyone have it?
106

Lab note: need growth for COCCOC(=O)c1ccc(C(C)C)cc1 on SK-OV-3 ovarian, anyone have it?
82.1

Lab note: need growth for Cc1cc(C)c(CC(=O)O)c(C)c1 on SK-OV-3 ovarian, anyone have it?
110

Lab note: need growth for Cc1cc(N)c(S(=O)(=O)O)c(N)c1 on SK-OV-3 ovarian, anyone have it?
100

---

Answer each item with its documented growth.
Test system: PC-3 prostate
test_protocol: NCI-60 one-dose screen, 48 h (100 = growth as untreated, 0 = no growth, -100 = all killed)
settings: 10 µM
This is part of a sample that, as a whole, favours compounds with a hit. Of some 83,000 tested, about 20% had one in any assay.
Numbers only; they are read as %.

Data request, read-out growth, for CC(=O)OCCO
104

Data request, read-out growth, for O=c1cc2oc3cc(O)c(O)cc3c(-c3ccccc3O)c-2cc1O
73.9

Data request, read-out growth, for O=[N+]([O-])c1cccc(N=Nc2ccc(O)cc2O)c1
58.5

Data request, read-out growth, for O=S(=O)(O)C(Nc1ccccc1)c1ccccc1 (stereo not given)
102

Data request, read-out growth, for Cc1ccc(S(=O)(=O)O)c(C)c1
99.1

Data request, read-out growth, for CCCCCCCO
105

Data request, read-out growth, for O=C(O)CCCc1ccccc1
99.3

Data request, read-out growth, for CCOc1ccccc1/C=N/Nc1nc2ccccc2o1
85.8

Data request, read-out growth, for CCN1C(=O)/C(=C/C=C/N(C)c2ccccc2)SC1=S
85.1

Data request, read-out growth, for COc1cccc(/C=N/NC(=S)NC2CC3CCC2C3)c1O (stereo not given)
64.8

Data request, read-out growth, for C=CCc1cc(C(C)=O)cc(OC)c1O
106

Data request, read-out growth, for S=C(Nc1ccccc1)N1CCCCC1
96.4

Data request, read-out growth, for Cc1ccc(C(=O)N/N=C/c2ccc3c(c2)OCO3)cc1
82.8

Data request, read-out growth, for O=c1cc(-c2ccccc2)nc2cc(-c3ccco3)[nH]n12
78.7

Data request, read-out growth, for COc1ccc(/C=C/c2cccc[n+]2C)cc1
87

Data request, read-out growth, for O=C1Cc2cc(O)ccc2O1
107

Data request, read-out growth, for CCOC(=O)c1[nH]c(C)c(C(=O)O)c1C
88.9

Data request, read-out growth, for COC(=O)CCCCC1=CCC2C(=O)C=C(O)C2C1 (stereo not given)
92.5

Data request, read-out growth, for Cc1c(O)cnc2nn(-c3ccccc3)c(=N)n12
119

Data request, read-out growth, for CC1CCC(C(=O)O)N1 (stereo not given)
99.2

Data request, read-out growth, for O=c1[nH]nc(SC2CCCCC2)c(=O)[nH]1
90.6

Data request, read-out growth, for COc1cc2nn(-c3ccccc3N)nc2cc1OC
97.8

Data request, read-out growth, for CCCC(C)OCC(=O)O (stereo not given)
98.4

Data request, read-out growth, for OCCN(CCO)C(=S)S
104

Data request, read-out growth, for C#C[C@H]1CCCCCC1O (stereo not given in full)
90.1

Data request, read-out growth, for O=S(=O)(O)c1cc(O)c2c(N=Cc3ccccc3O)c(S(=O)(=O)O)ccc2c1
95.5

Data request, read-out growth, for Nc1ccc(C(=O)c2ccc(N)c(Br)c2)cc1Br
22.4

Data request, read-out growth, for CCOC(=O)Nc1nn[nH]n1
96.8

Data request, read-out growth, for COC(=O)Nc1cccc(Cl)c1OC
103

Data request, read-out growth, for CCCC1(c2ccccc2)NC(=O)NC1=O (stereo not given)
99

Data request, read-out growth, for CCOC(=O)CSc1c([N+](=O)[O-])ncn1C
106

Data request, read-out growth, for COc1nc(N)nc2c1ncn2C1OC(CO)CC1O (stereo not given)
99.2

Data request, read-out growth, for Cc1cc(Cc2cc(C)c(N)cc2N)c(N)cc1N
85.4

Data request, read-out growth, for CCCCC(=O)c1ccc(OC)cc1
110

Data request, read-out growth, for CCC(O)CC(CC)CO (stereo not given)
101

Data request, read-out growth, for CC(C)(C)c1cc(O)c(C(C)(C)C)cc1O
76.3

Data request, read-out growth, for O=C1NC(=O)C2C(=O)NC(=O)C1C21CCc2ccccc21 (stereo not given)
90.1

Data request, read-out growth, for CC(C)=CC(=O)OC(=O)C=C(C)C
98.4

Data request, read-out growth, for CSC[C@H](NC(=O)COc1cccc2cnccc12)C(=O)NC(Cc1ccccc1)C(O)C(=O)N1CSC[C@H]1C(=O)NC(C)(C)C (stereo not given in full)
96.3

Data request, read-out growth, for COc1cc2c3c(n(C)c(=O)c2cc1OC)-c1cc2c(cc1C3=O)OCO2
46.8

Data request, read-out growth, for CN(c1ccccc1)c1ncnc2c1ncn2C
95.8

Data request, read-out growth, for O=C(N/N=C/c1ccccc1O)Nc1nn[nH]n1
95.6

Data request, read-out growth, for C/C(=C\c1cc(Cl)ccc1OCC(=O)O)[N+](=O)[O-]
96.2

Data request, read-out growth, for CC(=Nc1ccccc1)C1=C(O)C(Cc2cccc(F)c2)NC1=O (stereo not given)
19.2

Data request, read-out growth, for CC(=O)c1cc2c(cc1F)C(C)(C)CCC2(C)C
95.6

Data request, read-out growth, for c1csc(-c2cc(-c3cc(-c4cccs4)[nH]n3)n[nH]2)c1
87.3

Data request, read-out growth, for COC(=O)c1ccccc1N(C)C
100

Data request, read-out growth, for CC1=CC(C)(C)NC(=S)N1c1ccc(S(=O)(=O)O)c2cccc(S(=O)(=O)O)c12
92.5

Data request, read-out growth, for CN(C)CCC(=O)c1ccc(O)cc1
106

Data request, read-out growth, for CN(C)c1nc2c([nH]1)c(=O)n(C)c(=O)n2C
91.6

Data request, read-out growth, for c1ccc2c(N3CCCCC3)ncnc2c1
87.3

Data request, read-out growth, for Cc1ccc(O)c(C(=O)c2ccccc2)c1
101

Data request, read-out growth, for O=C(CCNNC(=O)c1ccncc1)NCc1ccccc1
87.4

Data request, read-out growth, for C=C[Si](OC(C)=O)(OC(C)=O)OC(C)=O
91.6

Data request, read-out growth, for Clc1ccc(-c2n[nH]c3c2Cc2ccccc2-3)cc1Cl
92.4
